# method-summary: small-molecule binders of probe aNOTCH3, primary screen, biochemical, small-molecule microarray, 635/667 nm fluorescence (AID 1120);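 note: probe is a biotin-tagged antibody raised against NOTCH3 rather than NOTCH3 protein; score merges spot fluorescence near 667 nm with spot signal to noise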
# condition-details: higher = more signal
recorded-metric: composite z-score
Enter the number alone.

Worked cases, answers included:
| smiles-text | composite z-score |
| --- | --- |
| CCCC=C(CCC)[C@@H](NS(=O)(=O)c1ccc(C(F)(F)F)cc1)c1ccc(-c2ccccc2)cc1 | 0.305 |
| O=C1c2ccccc2[C@](Cc2ccccc2I)(C(=O)NCc2ccccc2)[C@H](c2ccc(CO)cc2)N1Cc1ccccc1C(F)(F)F | -0.253 |
| CO[C@H]1COC(=O)CC=C[C@@H](C)COC(=O)[C@@H](C)NC(=O)CC=C[C@@H]1C | -0.0345 |

// below: composite z-score requested for another molecule
Given COc1cc([C@@H]2N[C@H](C(=O)O)Cc3c2[nH]c2ccccc32)cc(OC)c1OC , state its recorded composite z-score.
0.059

###

This section presents molecules with their documented composite z-score values.
# method-summary: small-molecule microarray binders of probe aCHRDL2, primary screen, biochemical, biotinylated probe, 635/667 nm fluorescence (AID 1100)
# condition-details: higher = more signal
Enter the number alone.

| molecule | reported |
| --- | --- |
| COCCOC(=O)N1C(=O)[C@@]2(c3cc(C#CCNC(N)=O)ccc31)[C@H](c1ccc(OCCO)cc1)N1[C@H](c3ccccc3)[C@H](c3ccccc3)OC(=O)[C@H]1[C@@H]2C(=O)Nc1nc2ccccc2s1 | 0.88 |

Given Cc1ccc(S[C@]2(C(=O)NC3CC3)CC(=O)N(Cc3cc(C(F)(F)F)cc(C(F)(F)F)c3)[C@@H]2c2ccc(CO)cc2)cc1 , state its recorded composite z-score.
0.0275

Also COc1ccc([Si](C)(C)[C@H]2[C@H](CCO)O[C@@]3(C(=O)N(Cc4ccccc4)c4ccc(N5C(=O)c6cccc7cccc5c67)cc43)[C@@H]2C)cc1 , if possible.
0.633

Also C[N+](C)(C)CCCC[C@@H]1NC(=O)[C@H]2C[C@@H](C(=O)NCc3ccc(F)cc3)[C@@H](c3cccc(OCCO)c3)N2C1=O , if possible.
0.479

Also C[C@]1(C(=O)NCCN2CCOCC2)c2ccccc2C(=O)N(Cc2ccccc2)[C@H]1c1ccc(CO)cc1 , if possible.
0.606

Also O=C(NCc1ccccc1)[C@@]1(CCS(=O)(=O)c2ccccc2)COC(c2ccc(OCCCO)cc2)=N1 , if possible.
1.47

Also CN1C(=O)C2C=CC(C(O)C3CC=CCC3)N(Nc3ccccc3)C2C1=O (centres undefined) , if possible.
0.533

Also COc1cccc([C@@H]2[C@@H](C)CC[C@H]3C(=O)N(C)[C@@H](C(C)C)C(=O)N23)c1 , if possible.
-0.532

Also CCCC[C@@H]1C[C@H]1[C@@H](NC(=O)c1ccccc1)c1ccccc1C(F)(F)F , if possible.
1.05

Also CC(C)C[C@@H]1NC(=O)[C@H](CC(C)C)NC(=O)[C@@]23C(=O)N[C@@H](Cc4ccccc4)C2[C@H](C)[C@@]2(C)O[C@H]2C3/C=C/CC/C=C/CNC1=O (some centres undefined) , if possible.
-0.406

Also COC(=O)C[C@H]1O[C@]2(C(=O)N(Cc3ccccc3)c3ccc(I)cc32)[C@@H](C)[C@@H]1[Si](C)(C)c1ccc(OC)cc1 , if possible.
0.533

Also NC(=O)NCC#Cc1ccc2c(c1)[C@]1(C(=O)N2)[C@H](C(N)=O)[C@H]2C(=O)O[C@H](c3ccccc3)[C@H](c3ccccc3)N2[C@@H]1c1ccccc1OCCO , if possible.
0.482

Also C=CCN1C(=O)[C@@]2(O[C@@H](CCn3cc([C@H](O)c4ccccc4)nn3)[C@H]([Si](C)(C)c3ccc(OC)cc3)[C@H]2C)c2cc(N3CCOC3=O)ccc21 , if possible.
0.338

Also C=CC(=O)O[C@@H](Cc1ccccc1)[C@H]1C2C=CCCC=C2CN1Cc1cccc(Cl)c1 (some centres undefined) , if possible.
0.502
